# activity against protease in selectivity screen (enzyme assay) per entry
Molecular target: Endotheliase-1 (ET1)
Test: cell-based or functional assay

Example cases with answers are listed next.
Look up activity against protease in selectivity screen (enzyme assay) for this binder: F8 IgG1 antibody (Fab F8 reformatted) (antibody, V domains shown) VH: EVQLLESGGGLVQPGGSLRLSCAASGFTFSRYHMWWVRQAPGKGLEWVSGISSSRGITKYADSVKGRFTISRDNSKNTLYLQMNSLRAEDTAVYYCARGGPRGNKYYFDYWGQGTLVTVSS VL: DIQMTQSPGTLSLSPGERVTLSCRASQSVTSSDLAWYQQKPGQAPRLLISGASSRATGIPDRFSGSGSGTDFTLTISRLEPEDFAVYYCQQYGNSPGTFGQGTKVEIKR
< 5%

Look up activity against protease in selectivity screen (enzyme assay) for this binder: A2 IgG1 antibody (Fab A2 reformatted) (antibody, V domains shown) VH: EVQLLESGGGLVQPGGSLRLSCAASGFTFSRYRMYWVRQAPGKGLEWVSSISPSGGDTRYADSVKGRFTISRDNSKNTLYLQMNSLRAEDTAVYYCARGGPRGNKYYFDYWGQGTLVTVSS VL: DIQMTQSPSFLSAFVGDRVTITCRASQDIRSDLAWYQQTPGKAPKLLIYAASTLKDGAPSRFSGSGSGTEFTLTISSLHPEDLATYYCQHLNGHPAFGPGTKVNIQR
< 5%

Attention now shifts to the item below.
Look up activity against protease in selectivity screen (enzyme assay) for this binder: D2 IgG1 antibody (Fab D2 reformatted) (antibody, V domains shown) VH: EVQLLESGGGLVQPGGSLRLSCAASGFTFSRYRMYWVRQAPGKGLEWVSSISPSGGDTRYADSVKGRFTISRDNSKNTLYLQMNSLRAEDTAVYYCARGGPRGNKYYFDYWGQGTLVTVSS VL: DIQMTQSPSSLSASVGDRVTITCRASQTIDNYLNWYQQKPGKAPKLVVYAASTLQTRVPSRFSGSGSGTDFTLTIDSLKPEDFATYFCQQGFSNPWTFGQGTTVAMIR
< 5%
